target-or-test-system: T1, human urokinase plasminogen activator receptor, recombinant extracellular domain protein (human, UniProt Q03405 23-303)
T1 construct: Bought recombinant protein (Sino Biological); also called h uPAR; human uPAR
T1 sequence (Q03405 23-303 limits assumed): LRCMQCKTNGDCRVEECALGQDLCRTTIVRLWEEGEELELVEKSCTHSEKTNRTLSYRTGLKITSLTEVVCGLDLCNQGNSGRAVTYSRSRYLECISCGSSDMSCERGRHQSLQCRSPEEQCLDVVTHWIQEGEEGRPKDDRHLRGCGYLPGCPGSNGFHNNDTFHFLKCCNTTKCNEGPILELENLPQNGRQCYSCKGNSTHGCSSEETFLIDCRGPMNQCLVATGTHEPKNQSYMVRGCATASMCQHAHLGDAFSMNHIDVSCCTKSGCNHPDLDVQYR
experimental-details: SPR (Biacore T200) kinetics, purified sdAb 150-0.62 nM, h uPAR immobilised on CM5, kd/ka
measurement-kind: Kd (nM)
Quick note: give the figure in nM, leave out the unit.

Example entries and their recorded answers appear below.
>>> recorded_result("sdAb 18 (clone 5H2) with carboxy-terminal hexahistidine tag (VHH, C-terminal 6His for purified-protein SPR; koff screen used bacterial extracts; also called Nr 18) VHH: QVQLQESGGGLAQPGGSLRLSCTASGFTSDYYGIGWFRQAPGKEREGVSCISSSDGSTYYADSVKGRFTISRDNAKNTVYLQMNSLKPEDTAVYYCATRGASCYYTGSYSLGYDYWGQGTQVTVSS")
4.7
>>> recorded_result("sdAb 15 (clone 5A4) with carboxy-terminal hexahistidine tag (VHH, Lead compound; C-terminal 6His for purified-protein SPR; koff screen used bacterial extracts of the pMECS-GG construct; also called sdAb15.6His; Nr 15) VHH: QVQLQESGGGWVQPGGSLRLSCAASGFTLDYYGIGWFRQAPGKEREGVSCISSSDGSTYYADSVKGRFTISRDNAKNTVYLQMNSLKPEDTAVYYCATRGASCYYTGSYSLGYDYWGQGTQVTVSS")
2.1
>>> recorded_result("sdAb 16 (clone 5A5) with carboxy-terminal hexahistidine tag (VHH, C-terminal 6His for purified-protein SPR; koff screen used bacterial extracts; also called Nr 16) VHH: QVQLQESGGGLVQPGGSLRLSCAISGFTLDYYGIGWFRQAPGKEREGVSCISSSDGSTYYADSVKGRFTISRDNAKNTVYLQMNSLKPEDTAVYYCATRGASCYYSGSYSLGYDYWGQGTQVTVSS")
3

Here is another binder to look at.
Q: Look up Kd for this binder: sdAb 17 (clone 5B7) with carboxy-terminal hexahistidine tag (VHH, C-terminal 6His for purified-protein SPR; koff screen used bacterial extracts; also called Nr 17) VHH: QVQLQESGGGLVQPGGSLRLSCAVSGSTLEYYGIGWFRQAPGKEREGVSCISSSDGSTYYADSVKGRFTISRDNAKNTVYLQMNSLKPEDTAVYYCATRGASCYYTGSYSLGYDYWGQGTQVTVSS
A: 2.3
